Test system: HEK293T
experiment.notes: plasma membrane surface immunostaining intensity (anti-HA, deep receptor scanning) (arbitrary fluorescence units); higher = higher plasma membrane expression
measurement.conditions: GPCR class: A (Olfactory)
readout.type: plasma membrane surface immunostaining intensity
Field format: numeric only.

Q: Name the reported plasma membrane surface immunostaining intensity value associated with the sequence MPVGKLVFNQSEPTEFVFRAFTTATEFQVLLFLLFLLLYLMILCGNTAIIWVVCTHSTLRTPMYFFLSNLSFLELCYTTVVVPLMLSNILGAQKPISLAGCGAQMFFFVTLGSTDCFLLAIMAYDRYVAICHPLHYTLIMTRELCTQMLGGALGLALFPSLQLTALIFTLPFCGHHQEINHFLCDVPPVLRLACADIRVHQAVLYVVSILVLTIPFLLICVSYVFITCAILSIRSAEGRRRAFSTCSFHLTVVLLQYGCCSLVYLRPRSSTSEDEDSQIALVYTFVTPLLNPLLYSLRNKDVKGALRSAIIRKAASDAN [OR10Q1]
A: 243

All figures here come from the supplement of paper PMC12458215.
